biological target: T1, N1 binding to cell surface expressed hJ1 (Homo sapiens, UniProt P78504); assay: Notch binding blocking assay (FACS): N1 EGF11-13 beads staining human J1-expressing cells; conditions: final antibody concentration 0.6 μg/ml
T1 construct: cell expressed full length human J1 (hJ1; HEK293 transfectants); expressed in transfected cells; host or cells: HEK293
T1 sequence (P78504 34-1218): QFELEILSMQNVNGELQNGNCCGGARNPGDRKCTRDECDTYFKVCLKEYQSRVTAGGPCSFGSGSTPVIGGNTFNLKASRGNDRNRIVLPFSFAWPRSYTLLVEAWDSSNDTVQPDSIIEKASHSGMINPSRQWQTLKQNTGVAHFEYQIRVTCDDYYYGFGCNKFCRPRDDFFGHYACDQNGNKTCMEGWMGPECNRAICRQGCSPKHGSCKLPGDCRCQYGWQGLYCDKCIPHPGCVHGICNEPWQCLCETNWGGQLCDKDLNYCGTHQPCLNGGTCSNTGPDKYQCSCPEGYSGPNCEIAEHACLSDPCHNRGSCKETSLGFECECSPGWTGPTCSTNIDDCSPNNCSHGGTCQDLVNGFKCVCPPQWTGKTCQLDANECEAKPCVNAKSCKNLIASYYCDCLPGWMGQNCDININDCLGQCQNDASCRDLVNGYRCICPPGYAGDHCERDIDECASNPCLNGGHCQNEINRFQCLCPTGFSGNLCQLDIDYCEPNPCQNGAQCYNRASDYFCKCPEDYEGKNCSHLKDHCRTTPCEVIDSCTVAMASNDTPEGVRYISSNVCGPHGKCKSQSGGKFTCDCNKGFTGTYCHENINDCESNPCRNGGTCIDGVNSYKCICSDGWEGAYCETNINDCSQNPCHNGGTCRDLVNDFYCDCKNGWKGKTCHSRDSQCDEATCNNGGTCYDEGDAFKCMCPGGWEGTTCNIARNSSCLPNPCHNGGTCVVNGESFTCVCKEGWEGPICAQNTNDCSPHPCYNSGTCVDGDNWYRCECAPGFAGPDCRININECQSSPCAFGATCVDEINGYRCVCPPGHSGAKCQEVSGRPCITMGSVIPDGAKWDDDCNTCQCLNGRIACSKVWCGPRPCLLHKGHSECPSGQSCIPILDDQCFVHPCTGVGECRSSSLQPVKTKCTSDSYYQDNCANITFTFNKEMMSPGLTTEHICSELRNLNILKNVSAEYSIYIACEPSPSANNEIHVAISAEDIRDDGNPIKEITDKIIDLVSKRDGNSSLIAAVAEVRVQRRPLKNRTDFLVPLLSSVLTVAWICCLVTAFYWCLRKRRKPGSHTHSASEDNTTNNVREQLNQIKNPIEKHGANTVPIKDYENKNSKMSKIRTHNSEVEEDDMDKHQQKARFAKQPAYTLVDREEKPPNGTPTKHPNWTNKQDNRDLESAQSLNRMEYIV
measureName: Blocking of Notch1 binding to cell surface Jagged 1

Ask | Return value of Blocking of Notch1 binding to cell surface Jagged 1 for input J1-65D variant 3: humanised/de-immunised J1-65D: J1-65D_VL_1 + J1-65D_VH_3 (antibody, V domains shown) VH: QVQLVQSGAEVKKPGSSVKVSCKASGYTFTDYEMHWVRQAPGQGLEWMGAIQPGGGGTAYAQKFQGRVTLTADKSTSTAYMELSSLRSEDTAVYYCTRRGYDDYPFAYWGQGTLVTVSSASTKGP VL: DIQMTQSPSSLSASVGDRVTITCRASGNIHNYLAWYQQKPGKAPKLLIYNAKTLADDVPSRFSGSGSGTDYTLTISSLQPEDFATYYCQHFWSAPWTFGGGTKLEIKRT , no commentary.
Reply | + (Complete blocking)

Ask | Return value of Blocking of Notch1 binding to cell surface Jagged 1 for input J1-183D variant 8: humanised/de-immunised J1-183D: J1-183D_VL_2 + J1-183D_VH_4 (antibody, V domains shown) VH: QVQLVQSGAEVKKPGASVKVSCKASGYTFTDYAIHWVRQAPGQGLEWMGIINTYYGDSKYAQKFQGRVTMTVDTSTSTAYMELSSLRSEDTAVYYCARGYDGFAYWGQGTLVTVSSASTKGP VL: DIQMTQSPSSLSASVGDRVTITCRTSENIYSYLTWYQQKPGKAPKLLIYNAKTLASGVPSRFSGSGSGTDFTLTISSLQPEDFATYYCQHHYDIPWTFGGGTKLEIKRT , no commentary.
Reply | + (Complete blocking)
